Every entry's value here was drawn from ChEMBL document CHEMBL5512617.

system: Influenza A virus; test: Antiviral activity against influenza A virus harboring wild type M2 ion channel infected in MDCK cells assessed as viral growth inhibition preincubated with cells for 30 mins followed by viral infection and measured after 72 hrs by CCK-8 assay; assay type: functional, organism-based; conditions: Influenza A virus, MDCK
property label: pIC50
Give bare numbers, as −log10 of the molar value.

CC1(C)[C@@H]2CC[C@@]1(C)[C@@H](CN)C2 : 6.54

Would you mind giving pIC50 for every molecule in the list below?
1. NC12CC3CC(CC(C3)C1)C2
2. CC(N)[C@H]1C[C@H]2CC[C@]1(C)C2(C)C (some centres undefined)
3. C[C@H]1[C@H](N)C[C@@H]2C[C@H]1C2(C)C

[A]
6.30
7.00
6.92
